TARGET_UNDER_TEST: Nucleoli Translocation, AR (gene 367) (UniProt P10275)
Sequence (P10275 whole entry, looked up): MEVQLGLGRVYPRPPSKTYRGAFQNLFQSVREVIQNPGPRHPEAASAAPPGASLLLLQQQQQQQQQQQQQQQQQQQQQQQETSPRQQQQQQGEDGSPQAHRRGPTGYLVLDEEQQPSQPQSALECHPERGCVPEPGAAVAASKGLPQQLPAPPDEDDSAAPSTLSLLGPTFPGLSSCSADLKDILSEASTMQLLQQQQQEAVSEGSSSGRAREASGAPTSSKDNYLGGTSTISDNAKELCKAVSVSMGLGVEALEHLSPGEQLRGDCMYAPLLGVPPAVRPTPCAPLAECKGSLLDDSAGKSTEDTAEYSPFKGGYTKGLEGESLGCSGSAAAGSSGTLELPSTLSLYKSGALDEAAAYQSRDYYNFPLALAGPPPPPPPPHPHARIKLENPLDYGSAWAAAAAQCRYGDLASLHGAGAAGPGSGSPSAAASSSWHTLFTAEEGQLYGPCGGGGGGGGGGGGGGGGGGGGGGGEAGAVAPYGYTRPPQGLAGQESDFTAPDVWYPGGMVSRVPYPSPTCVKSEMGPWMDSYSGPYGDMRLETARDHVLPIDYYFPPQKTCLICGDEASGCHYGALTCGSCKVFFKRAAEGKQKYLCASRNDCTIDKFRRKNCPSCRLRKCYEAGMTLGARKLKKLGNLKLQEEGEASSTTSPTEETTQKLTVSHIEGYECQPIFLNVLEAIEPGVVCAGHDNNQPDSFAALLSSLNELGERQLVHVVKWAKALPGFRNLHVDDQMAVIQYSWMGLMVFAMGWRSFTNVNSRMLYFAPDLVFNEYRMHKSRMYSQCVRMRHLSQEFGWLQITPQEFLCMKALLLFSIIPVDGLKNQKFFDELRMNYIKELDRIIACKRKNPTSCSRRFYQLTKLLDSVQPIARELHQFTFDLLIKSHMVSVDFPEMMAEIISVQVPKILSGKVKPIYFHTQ
METHOD_NOTES: UPITT_HCI_U2OS_AR_TIF2_Nucleoli_Antagonist: University of Pittsburgh U2OS Androgen Receptor-Transcriptional Intermediary Factor 2 (AR-TIF2) Antagonism High Content Imaging Assay for Nucleoli Translocation (AID 2283997)
Results filed as inconclusive are left out. The source made the active and inactive calls. Rule for the calls: active = hit-call score of the fitted dose curve at least 0.9, where 1 is the maximum; inconclusive = response in the unintended direction; inactive = score below 0.9.
Possible outcomes: TRUE for active, FALSE for inactive

COP(=S)(OC)Oc1ccc(Sc2ccc(OP(=S)(OC)OC)cc2)cc1    FALSE
O=C1C2(Cl)C3(Cl)C4(Cl)C(Cl)(Cl)C5(Cl)C3(Cl)C1(Cl)C5(Cl)C24Cl (configuration not stated)    TRUE
CC(C)(c1ccc(OCC2CO2)cc1)c1ccc(OCC2CO2)cc1 (configuration not stated)    TRUE
ClC1(Cl)C2(Cl)C3(Cl)C4(Cl)C(Cl)(Cl)C5(Cl)C3(Cl)C1(Cl)C5(Cl)C24Cl (configuration not stated)    FALSE
O=[N+]([O-])c1ccc(O)c([N+](=O)[O-])c1    FALSE
Cc1ccccc1C(=O)Nc1cccc(OC(C)C)c1    FALSE
O=c1[nH]c(=O)[nH]c(=O)[nH]1    FALSE
